Cited source: ChEMBL document CHEMBL2086248

system: Mus musculus; test: Anticonvulsant activity in mouse assessed as protection against subcutaneous pentylenetetrazole-induced seizures at 100 mg/kg, ip after 4 hrs; format: functional, organism-based; parameters: dose 100 mg/kg
The source made the active and inactive calls. The rule behind the calls is not given here.
Result category, one only: active, inactive

Check out these entries, answers already filled in.
O=C(O/N=C(\Cn1ccnc1)c1ccc2ccccc2c1)c1ccccc1Cl : inactive
Cl.O=C(/C=C/c1ccccc1)O/N=C(\Cn1ccnc1)c1ccc2ccccc2c1 : inactive
Cc1ccccc1C(=O)O/N=C(\Cn1ccnc1)c1ccc2ccccc2c1 : inactive
O=C(O/N=C(\Cn1ccnc1)c1ccc2ccccc2c1)c1ccccc1 : inactive
Cl.O=C(ON=C(Cn1ccnc1)c1ccc2ccccc2c1)C1CCCCC1 (mixture of isomers) : inactive
CCCC(=O)O/N=C(\Cn1ccnc1)c1ccc2ccccc2c1.Cl : inactive
COc1ccc(C(=O)O/N=C(\Cn2ccnc2)c2ccc3ccccc3c2)cc1 : inactive
CCC(=O)O/N=C(\Cn1ccnc1)c1ccc2ccccc2c1.Cl : inactive

Input: Entry CCCC(CCC)C(=O)[O-].[Na+] [VALPROATE SODIUM] : call = ?
Output: inactive

Input: Entry `O=C(O/N=C(\Cn1ccnc1)c1ccc2ccccc2c1)c1cccc(Br)c1` : call = ?
Output: inactive

Input: Entry `O=C1NC(=O)C(c2ccccc2)(c2ccccc2)N1` : call = ?
Output: inactive

Input: Entry `O=C(O/N=C(\Cn1ccnc1)c1ccc2ccccc2c1)c1cccc(Cl)c1` : call = ?
Output: inactive

Input: Entry NC(=O)N1c2ccccc2C=Cc2ccccc21 [CARBAMAZEPINE] : call = ?
Output: active

Input: Entry `CC(C)CC(=O)O/N=C(\Cn1ccnc1)c1ccc2ccccc2c1.Cl` : call = ?
Output: inactive

Input: Entry `O=C(O/N=C(\Cn1ccnc1)c1ccc2ccccc2c1)c1ccc(Cl)cc1` : call = ?
Output: active

Input: Entry `COc1ccccc1C(=O)O/N=C(\Cn1ccnc1)c1ccc2ccccc2c1` : call = ?
Output: inactive

Input: Entry `C/C=C(\C)C(=O)O/N=C(\Cn1ccnc1)c1ccc2ccccc2c1.Cl` : call = ?
Output: inactive
